target: ERK5 (Homo sapiens, UniProt Q13164); construct: made in house; assay: ERK5 IMAP assay (fluorescence polarisation); assay type: biochemical; details: average (e.g. geometric mean) where more than one data point; read-out: ERK5 IC50
Sequence (Q13164 whole entry): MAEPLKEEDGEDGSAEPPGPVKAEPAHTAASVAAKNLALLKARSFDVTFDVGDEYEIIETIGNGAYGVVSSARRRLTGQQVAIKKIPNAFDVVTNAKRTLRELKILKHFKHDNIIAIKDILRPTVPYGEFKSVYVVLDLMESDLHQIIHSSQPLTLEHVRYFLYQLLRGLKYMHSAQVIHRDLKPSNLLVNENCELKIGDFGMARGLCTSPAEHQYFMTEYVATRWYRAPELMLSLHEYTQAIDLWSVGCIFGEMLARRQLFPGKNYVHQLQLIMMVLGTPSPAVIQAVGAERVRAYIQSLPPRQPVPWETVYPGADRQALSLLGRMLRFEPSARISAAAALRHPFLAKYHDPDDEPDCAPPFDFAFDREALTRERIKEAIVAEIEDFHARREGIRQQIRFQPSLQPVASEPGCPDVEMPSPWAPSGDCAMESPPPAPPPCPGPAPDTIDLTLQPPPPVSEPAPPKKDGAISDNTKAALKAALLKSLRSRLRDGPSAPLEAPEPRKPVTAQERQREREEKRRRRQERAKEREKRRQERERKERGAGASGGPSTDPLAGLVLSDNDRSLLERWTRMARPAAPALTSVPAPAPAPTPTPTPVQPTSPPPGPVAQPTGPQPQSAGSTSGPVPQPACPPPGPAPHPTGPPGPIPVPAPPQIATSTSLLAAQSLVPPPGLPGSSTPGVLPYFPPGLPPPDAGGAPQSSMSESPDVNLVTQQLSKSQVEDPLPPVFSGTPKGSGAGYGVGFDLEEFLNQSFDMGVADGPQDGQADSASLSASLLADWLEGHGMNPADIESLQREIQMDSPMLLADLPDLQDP

{"compound": "O=C(NC1CCNCC1)c1cc(C(=O)c2c(F)cccc2C(F)(F)F)c[nH]1 [Example 161]", "IC50 (nM)": 2410}
{"compound": "COc1ccc(Cl)c(C(=O)c2c[nH]c(C(=O)NC3CCN(C)CC3)c2)c1F [Example 70]", "IC50 (nM)": 57.9}
{"compound": "CCCc1ccncc1NC(=O)c1cc(C(=O)c2c(F)cccc2Cl)c[nH]1 [Example 89]", "IC50 (nM)": 3340}
{"compound": "O=C(NC1CCNCC1)c1cc(C(=O)c2c(Cl)ccc(F)c2F)c[nH]1 [Example 224]", "IC50 (nM)": 155}
{"compound": "O=C(Nc1cnc(N2CCNCC2)nc1)c1cc(C(=O)c2c(F)cccc2Cl)c[nH]1 [Example 26]", "IC50 (nM)": 88.8}
{"compound": "C=Cc1ccc(F)c(C(=O)c2c[nH]c(C(=O)NC3CCN(C)CC3)c2)c1F [Ex 167]", "IC50 (nM)": 643}
{"compound": "COc1ccc(Cl)c(C(=O)c2c[nH]c(C(=O)Nc3cnc(CC4CCNCC4)nc3)c2)c1F [Example 252]", "IC50 (nM)": 12.2}
{"compound": "COc1ccncc1NC(=O)c1cc(C(=O)c2c(Cl)ccc(Cl)c2F)c[nH]1 [Example 96]", "IC50 (nM)": 1000}
